assay: yeast display, Sf9 membrane polyspecificity reagent, FACS + sequencing; frameworks hold sequencing errors
assay_endpoint: polyreactivity (PSR sort gate)

{"columns": ["chain", "observed_value"],
 "data": [
  ["QVQLVESWGGLVQAGGSLRLSSAASGSIFYHYAMGWYRQAPGKERELVAAISWRGASTYYADSVKGRFTISRDNAKNTVYLQMNSLKPEDTAVYYCARLSSSHPLYRDDYWGQGTQVTLSS", "high polyreactivity"],
  ["QVQLVESGGGLVQAGGSLRLSCAASGRTFEHYAMVWYRPAPGKERELVAAITWSGVSTYYADSVKGRFTISRDNAKNTVYLQMNSLKPEDTAVYYCAAKWLGYGFDYWGQGTQVTVSS", "low polyreactivity"],
  ["QGQLVESGGGLVQAGGILRLRCAACGSTILVYAMGWYRHAPGQERELVAFIDNGGDTYYADSVKGRFTISRDNAKNTVYLQMYSLKPEDTEVYYCADDLSYLGYWEYDYWGQGTQVTVSS", "low polyreactivity"],
  ["QVQLVESGGVLVQAGGSPRLSCAASGRTYAYYPMGWYRQAPGKERELVARITRGGSTYYADSVKGRFTISRDNAKNSVYLQMYSLIPDDTAVYYCNRYQWQHYTSVYLRTGSDYWGQGTQVTVSS", "high polyreactivity"],
  ["QVQLVESGGGLVQAGGSLRLSCAASGSIFYVYVMGWYRPAPGKERELVAGITSGGSTYYADSVKGRFTISRDNAKNTVYFQMNSLKPEDTAVYFCAADLYYWGDYDYWGQGSQVTVSS", "low polyreactivity"]
]}

###

experiment: yeast display, Sf9 membrane polyspecificity reagent, FACS + sequencing; frameworks hold sequencing errors
assay_endpoint: polyreactivity (PSR sort gate)

{"columns": ["chain", "observed_value"],
 "data": [
  ["QVQHVESGGCLVQAGRSLRLSCAASGRTFFPYGMGWDRQAPAKEREFVATISWSGGSTHYADSVKGRFTISRDNAKYTVYLEMNSLKPEDTAVYFCAAGNSLYWYNSGNYWGQGTQVTVSS", "low polyreactivity"],
  ["QVQLVESGGGLDQAGGSLRLSCAASGSTFHYYAMGWYRQPHGKERELVAVISSGGSTYYADSVKGRFTISRDNAKNTVYLQMNSLKPEDTAVYYCAAEYFLLAGKGYNGGDYYVYDYWGQGTQVTVSS", "low polyreactivity"],
  ["QVQLVESGGGLVQAGGSLRLSCAASGFTFYEYAMGWYRQAPGKERELVAAINRRGGRTYYADSVKGRFTISRDNAKNTVYLQMNSLKPEDTAVYYCNTPVSDGGHYYSWGQGTQVTVSS", "high polyreactivity"],
  ["QVQLVESGGGLVQAGGSLRLSCAASGRTFYYYAMGWYRQAPGKEMELGAAIRRSGSSTYYADSVKGRFTISRDNAKNTVYLQMNSLKPEDTAVYYCAAAVYQRARYYWGQGTQVTVSS", "high polyreactivity"],
  ["QVQLVESGGGLVQAGGSLRLRCAASGRTLGRYAMGWYRQAPGKDRELVAAIRIGGGSTYYADSVKGRFTISRDNAKNTVYLQMISLKPEDTAVYYCATRGYINGAGFGYWGQGTQVTVSS", "high polyreactivity"]
]}

###

test: yeast display, Sf9 membrane polyspecificity reagent, FACS + sequencing; frameworks hold sequencing errors
assay_endpoint: polyreactivity (PSR sort gate)

{"columns": ["chain", "observed_value"],
 "data": [
  ["QVQLVESGGGLVQAGGSLRLSCAASGSTLAIYAMGWYRQAPGKERELVAAISRSGGTTYYADSVKGRFTISRDNAKNTVYLQMNSLKPEDTAVYYCYPYFWYPDGYTYDYWGQGTQVTVSS", "high polyreactivity"],
  ["QVQLVESGGGLVQAGGSLRLSCAASGGTFYRNAMGWYRQAPGKERELVASISRTGGSTYYADSVKGRFTISRDIAKNTVYLQMNSLKPEDTAVYYCAKKQPRYSYFDNDYWGQGTQVTVSS", "high polyreactivity"],
  ["QVQLQESGGGLVQACGSQRLSCAASGSISEGQDMGRYRRAPRKEREFVAGIAPGATTYYADSVKGRFTISRDNAKNTVYLQMNSLKPEDTAVYYCAARSVTETDHDYWGQGTQVTVSS", "low polyreactivity"],
  ["QVQLVDSGGGLVKAGGSLRLSCAASGSTFAYYAMGWYRQAPGKERELVAAISWNGGSTYYADSVKGRFTISRDNAKNTVYLQMNSLKPEDTAVYYCAAEVYDYTYVVTFLYDYWGQGTQVTVSS", "high polyreactivity"],
  ["QVQLQESGGDLEQAGGSLRLSCTAIGTISDVRFMGWYRQAPGKERELVATISYVTITYYADSVKGRFTISRDSEKHRVSAHDEPETGRYRGVLLRYYWGLGTQVTVSS", "low polyreactivity"],
  ["QVQLVESGGGLVQAGGSLRLSCAASGSTFQRYAMGWYRQAPGKERELVAAITWSGGSTKYADSVKGRFTISRDNAKNTVYLQMNSLKPEDTAVYYCAATPGRGGGYNYWGQGTQVTVSS", "low polyreactivity"],
  ["QVQLVESGGGLVQAGGSLRLSCAASGSIFRWYAMGWYRQAPGKERELVAAITGSGGRTYYADSVKGRFTISRDNAKNTVYLQMNSLNPEDTAVYYCATRYGREDYWGQGTQVTVSS", "high polyreactivity"],
  ["QVQLVESGGGLVQAGGSLRLSCAASGGTFLGNAMGWYRQAPGKERELVADITSGGSTNYADSVKGRFTITRDNAKNTVYLQMNSLKPEDTAVYYCNARWWFQLYYYSTFAGYNYWGQGTQVTVSS", "low polyreactivity"],
  ["QVQLEESGGGLVQAGGRLRLSCAASVSIFGVYTMGWYRPAPGKERELVAAIRGVGSTNYADSVKGRFTISRDNAKNTVYLQMKSLKTEDTAVYYCAARYAYGMWGQGTHVTVSS", "low polyreactivity"],
  ["QLQLVESGGGLVQAGGSLRLSCAASGIIFRWYAMGFYRQAPGKERELVAAITSSGGRTYYADSVKGRFTISRDNAKNTVYLPMNILKPEDTAVYYCAASYYIVGCDPYDYWGQGTQVTVSS", "high polyreactivity"],
  ["LVQLQESGGGLVQAGGSLRLSCAASGTITPGGYKGWYRQAPGKERELVASINVGGSTNYADSVKGRFTISRDNAKKTVYLQMKSLKPEDNAVYYCAVWGRNRLQLSYWGQGTQVTVSS", "low polyreactivity"]
]}
